- test-details: Cytotoxicity in human MT2 cells assessed as inhibition of cell growth
- Format: cell-based
- test-settings: MT2 cells
endpoint-label: CC50

Problem: Supply recorded CC50 for Cc1ccnc2c1NC(=O)c1cccnc1N2C1CC1 here.
Result: > 100 µM

====

- Test system: MT2
- test-details: Cytotoxicity in human MT2 cells assessed as inhibition of cell growth
- Type: cell-based
- test-settings: mt2
Would you mind classing the entries by CC50? Ranges: low bracket (below 7 µM), middle bracket (7 µM to below 30 µM), high bracket (30 µM or more)

Past entries and their recorded results:
Cc1cc(F)c(Cc2cnc(Nc3ccc(C#N)c(Cl)c3)o2)c(F)c1    high bracket
CC(C)(C)c1cc(Cl)c(Cc2cnc(Nc3ccc(C#N)c(Cl)c3)o2)c(Cl)c1    low bracket
N#Cc1ccc(Nc2ncc(Cc3c(F)cc(C4CC4)cc3F)o2)cc1Cl    high bracket
CCc1cc(F)c(Cc2cnc(Nc3ccc(Oc4cccnc4)c(Cl)c3)o2)c(F)c1    low bracket
CCOc1cc(F)c(Cc2cnc(Nc3ccc(C#N)c(Cl)c3)o2)c(F)c1    middle bracket

Problem: Hi, small favor: classify COCc1cc(F)c(Cc2cnc(Nc3ccc(C#N)c(Cl)c3)o2)c(F)c1 by its CC50 when you get a moment.
Result: middle bracket

Problem: Sort CCC(C)c1cc(F)c(Cc2cnc(Nc3ccc(C#N)c(Cl)c3)o2)c(F)c1 (racemic) into one of the categories.
Result: high bracket

Problem: // bin(item) where item = CCc1cc(F)c(Cc2cnc(Nc3ccc(C#N)c(Cl)c3)o2)c(F)c1
Result: middle bracket

Problem: // return the class label for N#Cc1ccc(Nc2ncc(Cc3c(F)cc(CC4CC4)cc3F)o2)cc1Cl
Result: middle bracket

Problem: Class (by measured CC50) for CC(C)c1cc(F)c(Cc2cnc(Nc3ccc(C#N)c(Cl)c3)o2)c(F)c1
Result: low bracket

====

- test-details: Octanol-water partition coefficient, log P of the compound
- Type: physicochemical
endpoint-label: logP

CC(C)c1cc(F)c(Cc2cnc(Nc3ccc(C#N)c(Cl)c3)o2)c(F)c1    3.7

For the next question, use this molecule.
Problem: Fill in reported logP for this entry: N#Cc1ccc(Nc2ncc(Cc3c(F)cc(C4CC4)cc3F)o2)cc1Cl
Result: 3.3
